Numbers sourced from ChEMBL document CHEMBL1126013.

organism: Bos taurus; test: Relative effect on microtubular assembly (Tubulin polymerized by derivative/tubulin polymerized by taxol); assay type: functional
Form field: Relative effect (one value per entry).
Please state the value as a number alone, without comment.

Observe how each entry below is paired with its result.
COMPOUND: CC(=O)O[C@H]1C(=O)[C@]2(C)[C@@H](OC(=O)CN(C)C)C[C@H]3OC[C@@]3(OC(C)=O)[C@H]2[C@H](OC(=O)c2ccccc2)[C@]2(O)C[C@H](OC(=O)[C@H](O)[C@@H](NC(=O)c3ccccc3)c3ccccc3)C(C)=C1C2(C)C.CS(=O)(=O)O
OBSERVATION_TYPE: Relative effect
OBSERVED_RESULT: 0.77
//
COMPOUND: CC(=O)O[C@H]1C(=O)[C@@]2(C)[C@H]([C@H](OC(=O)c3ccccc3)[C@]3(O)C[C@H](OC(=O)[C@H](OC(=O)CN(C)C)[C@@H](NC(=O)c4ccccc4)c4ccccc4)C(C)=C1C3(C)C)[C@]1(OC(C)=O)CO[C@@H]1C[C@@H]2O.CS(=O)(=O)O
OBSERVATION_TYPE: Relative effect
OBSERVED_RESULT: 0.25
//
COMPOUND: CC(=O)O[C@H]1C(=O)[C@@]2(C)[C@H]([C@H](OC(=O)c3ccccc3)[C@]3(O)C[C@H](OC(=O)[C@H](O)[C@@H](NC(=O)c4ccccc4)c4ccccc4)C(C)=C1C3(C)C)[C@]1(OC(C)=O)CO[C@@H]1C[C@@H]2O [PACLITAXEL]
OBSERVATION_TYPE: Relative effect
OBSERVED_RESULT: 1

query: May I ask what Relative effect has been recorded for CC(=O)O[C@H]1C(=O)[C@]2(C)[C@@H](OC(=O)CN(C)C)C[C@H]3OC[C@@]3(OC(C)=O)[C@H]2[C@H](OC(=O)c2ccccc2)[C@]2(O)C[C@H](OC(=O)[C@H](OC(=O)CN(C)C)[C@@H](NC(=O)c3ccccc3)c3ccccc3)C(C)=C1C2(C)C.CS(=O)(=O)O.CS(=O)(=O)O ?
result: 0.42

====

experiment: Solubility in water; type: physicochemical; settings: read-out: S
Readings of solubility for the listed compounds

COMPOUND_SMILES: CC(=O)O[C@H]1C(=O)[C@@]2(C)[C@H]([C@H](OC(=O)c3ccccc3)[C@]3(O)C[C@H](OC(=O)[C@H](OC(=O)CN(C)C)[C@@H](NC(=O)c4ccccc4)c4ccccc4)C(C)=C1C3(C)C)[C@]1(OC(C)=O)CO[C@@H]1C[C@@H]2O.CS(=O)(=O)O
OBSERVATION_TYPE: solubility
OBSERVED_RESULT: 4.83 mM
--
COMPOUND_SMILES: CC(=O)O[C@H]1C(=O)[C@]2(C)[C@@H](OC(=O)CN(C)C)C[C@H]3OC[C@@]3(OC(C)=O)[C@H]2[C@H](OC(=O)c2ccccc2)[C@]2(O)C[C@H](OC(=O)[C@H](OC(=O)CN(C)C)[C@@H](NC(=O)c3ccccc3)c3ccccc3)C(C)=C1C2(C)C.CS(=O)(=O)O.CS(=O)(=O)O
OBSERVATION_TYPE: solubility
OBSERVED_RESULT: > 8.11 mM

Would you kindly look at the next entry?
query: solubility lookup needed for CC(=O)O[C@H]1C(=O)[C@]2(C)[C@@H](OC(=O)CN(C)C)C[C@H]3OC[C@@]3(OC(C)=O)[C@H]2[C@H](OC(=O)c2ccccc2)[C@]2(O)C[C@H](OC(=O)[C@H](O)[C@@H](NC(=O)c3ccccc3)c3ccccc3)C(C)=C1C2(C)C.CS(=O)(=O)O , thanks.
result: > 1.87 mM
